Consider the following compounds and their measured IC50 readings.
# targetOrTestSystem: mTORC1 (Homo sapiens, UniProt P42345+P62942)
# Construct: endogenous in cells; host or cells: PC3 cells (human prostate adenocarcinoma)
# assayText: Inhibition assay for mTORC1: phosphorylation of pS6K at Thr389, AlphaLISA SureFire in PC3 cells
# Type: cell-based
# conditionNotes: PC3 cells, 24 hours treatment, pS6K Thr389; analogs substituted at C40 and C16 (C16 diastereomer mixtures not isolated); read-out: pIC50 mTORC1 (converted)

1) CO[C@@H]1C[C@H](C[C@@H](C)[C@@H]2CC(=O)[C@H](C)/C=C(\C)[C@@H](O)[C@@H](OC)C(=O)[C@H](C)C[C@H](C)/C=C/C=C/C=C(\C)C(OCC3COC3)C[C@@H]3CC[C@@H](C)[C@@](O)(O3)C(=O)C(=O)N3CCCCC3C(=O)O2)CC[C@H]1OCCO (stereo partly shown) [Compound 75]: 0.316 to 3.16 nM
2) CO[C@@H]1C[C@H](C[C@@H](C)[C@@H]2CC(=O)[C@H](C)/C=C(\C)[C@@H](O)[C@@H](OC)C(=O)[C@H](C)C[C@H](C)/C=C/C=C/C=C(\C)C(OCCO)C[C@@H]3CC[C@@H](C)[C@@](O)(O3)C(=O)C(=O)N3CCCCC3C(=O)O2)CC[C@H]1OC(=O)NCCO (stereo partly shown) [Compound 64]: 0.316 to 3.16 nM
3) COCCOC1C[C@@H]2CC[C@@H](C)[C@@](O)(O2)C(=O)C(=O)N2CCCCC2C(=O)O[C@H]([C@H](C)C[C@@H]2CC[C@@H](OC)[C@H](OC)C2)CC(=O)[C@H](C)/C=C(\C)[C@@H](O)[C@@H](OC)C(=O)[C@H](C)C[C@H](C)/C=C/C=C/C=C/1C (stereo partly shown) [Compound 11]: < 0.316 nM
4) CO[C@@H]1C[C@H](C[C@@H](C)[C@@H]2CC(=O)[C@H](C)/C=C(\C)[C@@H](O)[C@@H](OC)C(=O)[C@H](C)C[C@H](C)/C=C/C=C/C=C(\C)C(OCCOCCO)C[C@@H]3CC[C@@H](C)[C@@](O)(O3)C(=O)C(=O)N3CCCCC3C(=O)O2)CC[C@H]1OCCCO (stereo partly shown) [Compound 53]: 0.316 to 3.16 nM
5) CO[C@@H]1C[C@H](C[C@@H](C)[C@@H]2CC(=O)[C@H](C)/C=C(\C)[C@@H](O)[C@@H](OC)C(=O)[C@H](C)C[C@H](C)/C=C/C=C/C=C(\C)C(OCCOCCO)C[C@@H]3CC[C@@H](C)[C@@](O)(O3)C(=O)C(=O)N3CCCCC3C(=O)O2)CC[C@H]1OCCO (stereo partly shown) [Compound 69]: 0.316 to 3.16 nM

Ask | What IC50 value was documented for this compound, CO[C@@H]1C[C@H](C[C@@H](C)[C@@H]2CC(=O)[C@H](C)/C=C(\C)[C@@H](O)[C@@H](OC)C(=O)[C@H](C)C[C@H](C)/C=C/C=C/C=C(\C)C(OCCc3ccccc3)C[C@@H]3CC[C@@H](C)[C@@](O)(O3)C(=O)C(=O)N3CCCCC3C(=O)O2)CC[C@H]1OC(=O)NCCN1CCOCC1 (stereo partly shown) [Compound 93] ?
Reply | < 0.316 nM

Ask | What value of IC50 has been reported for the following compound? COCCOC1C[C@@H]2CC[C@@H](C)[C@@](O)(O2)C(=O)C(=O)N2CCCCC2C(=O)O[C@H]([C@H](C)C[C@@H]2CC[C@@H](OCCCN3CCC(O)CC3)[C@H](OC)C2)CC(=O)[C@H](C)/C=C(\C)[C@@H](O)[C@@H](OC)C(=O)[C@H](C)C[C@H](C)/C=C/C=C/C=C/1C (stereo partly shown) [Compound 85]
Reply | 0.316 to 3.16 nM

Ask | Given COCCOC1C[C@@H]2CC[C@@H](C)[C@@](O)(O2)C(=O)C(=O)N2CCCCC2C(=O)O[C@H]([C@H](C)C[C@@H]2CC[C@@H](OCCOC)[C@H](OC)C2)CC(=O)[C@H](C)/C=C(\C)[C@@H](O)[C@@H](OC)C(=O)[C@H](C)C[C@H](C)/C=C/C=C/C=C/1C (stereo partly shown) [Compound 29] , state its recorded IC50.
Reply | < 0.316 nM

Ask | May I ask what IC50 has been recorded for CO[C@@H]1C[C@H](C[C@@H](C)[C@@H]2CC(=O)[C@H](C)/C=C(\C)[C@@H](O)[C@@H](OC)C(=O)[C@H](C)C[C@H](C)/C=C/C=C/C=C(\C)C(OC[C@@H](O)c3ccccc3)C[C@@H]3CC[C@@H](C)[C@@](O)(O3)C(=O)C(=O)N3CCCCC3C(=O)O2)CC[C@H]1OCCCN1CCOCC1 (stereo partly shown) [Compound 92] ?
Reply | < 0.316 nM

Ask | Give its IC50 value. Item: COCCOC1C[C@@H]2CC[C@@H](C)[C@@](O)(O2)C(=O)C(=O)N2CCCCC2C(=O)O[C@H]([C@H](C)C[C@@H]2CC[C@@H](OCCCN3C[C@@H](C)O[C@@H](C)C3)[C@H](OC)C2)CC(=O)[C@H](C)/C=C(\C)[C@@H](O)[C@@H](OC)C(=O)[C@H](C)C[C@H](C)/C=C/C=C/C=C/1C (stereo partly shown) [Compound 59]
Reply | < 0.316 nM

Ask | Reported IC50, compound COCCCO[C@@H]1CC[C@@H](C[C@@H](C)[C@@H]2CC(=O)[C@H](C)/C=C(\C)[C@@H](O)[C@@H](OC)C(=O)[C@H](C)C[C@H](C)/C=C/C=C/C=C(\C)C(OCCO)C[C@@H]3CC[C@@H](C)[C@@](O)(O3)C(=O)C(=O)N3CCCCC3C(=O)O2)C[C@H]1OC (stereo partly shown) [Compound 3] : ____
Reply | < 0.316 nM

Ask | Data request, read-out IC50, for CO[C@@H]1C[C@H](C[C@@H](C)[C@@H]2CC(=O)[C@H](C)/C=C(\C)[C@@H](O)[C@@H](OC)C(=O)[C@H](C)C[C@H](C)/C=C/C=C/C=C(\C)C(OCCO)C[C@@H]3CC[C@@H](C)[C@@](O)(O3)C(=O)C(=O)N3CCCCC3C(=O)O2)CC[C@H]1OC(=O)NCCN1CCCCC1 (stereo partly shown) [Compound 72]
Reply | 0.316 to 3.16 nM

Ask | Need IC50, item CO[C@@H]1C[C@H](C[C@@H](C)[C@@H]2CC(=O)[C@H](C)/C=C(\C)[C@@H](O)[C@@H](OC)C(=O)[C@H](C)C[C@H](C)/C=C/C=C/C=C(\C)C(OCCc3ccccc3)C[C@@H]3CC[C@@H](C)[C@@](O)(O3)C(=O)C(=O)N3CCCCC3C(=O)O2)CC[C@H]1OCCCN1CCOCC1 (stereo partly shown) [Compound 108]
Reply | < 0.316 nM

----------
# targetOrTestSystem: mTORC1 (Homo sapiens, UniProt P42345+P62942)
# Construct: endogenous in cells; host or cells: PC3 cells (human prostate adenocarcinoma)
# assayText: Inhibition assay for mTORC1: phosphorylation of pS6K at Thr389, AlphaLISA SureFire in PC3 cells
# Format: cell-based
# conditionNotes: PC3 cells, 24 hours treatment, pS6K Thr389; analogs substituted at C40 and C16 (C16 diastereomer mixtures not isolated); read-out: pIC50 mTORC1 (converted)
measurementLabel: IC50

Take a look at these entries with their results.
1. CO[C@@H]1C[C@H](C[C@@H](C)[C@@H]2CC(=O)[C@H](C)/C=C(\C)[C@@H](O)[C@@H](OC)C(=O)[C@H](C)C[C@H](C)/C=C/C=C/C=C(\C)C(OCCc3ccccc3)C[C@@H]3CC[C@@H](C)[C@@](O)(O3)C(=O)C(=O)N3CCCCC3C(=O)O2)CC[C@H]1OC(=O)NCCN1CCCCC1 (stereo partly drawn): < 0.316 nM
2. CO[C@@H]1C[C@H](C[C@@H](C)[C@@H]2CC(=O)[C@H](C)/C=C(\C)[C@@H](O)[C@@H](OC)C(=O)[C@H](C)C[C@H](C)/C=C/C=C/C=C(\C)C(OCCO)C[C@@H]3CC[C@@H](C)[C@@](O)(O3)C(=O)C(=O)N3CCCCC3C(=O)O2)CC[C@H]1OCCCN1CCOCC1 (stereo partly drawn): < 0.316 nM

The record that follows has no IC50 shown yet.
Ask | What value of IC50 has been recorded for this entry: COCCCCOC1C[C@@H]2CC[C@@H](C)[C@@](O)(O2)C(=O)C(=O)N2CCCCC2C(=O)O[C@H]([C@H](C)C[C@@H]2CC[C@@H](OCCO)[C@H](OC)C2)CC(=O)[C@H](C)/C=C(\C)[C@@H](O)[C@@H](OC)C(=O)[C@H](C)C[C@H](C)/C=C/C=C/C=C/1C (stereo partly drawn)
Reply | < 0.316 nM
